# procedure.summary: in vivo
# condition.info: rat, plasma, iv, 2 mg/kg
reported.metric: clearance (mL/min/kg)

Below, 2 compounds whose answers are already recorded.
CCCSc1sc(-c2cc[nH]n2)c2c1C(=O)NC[C@@H]2C : 11.9
CSc1sc(-c2cc[nH]n2)c2c1C(=O)CCC2 : 56

a = CSc1sc(-c2cc[nH]n2)c2c1C(=O)NCC2
b = CC1(C)CC(=O)c2c(SC3CCCC3)sc(-c3cc[nH]n3)c2C1
Which value of clearance is smaller, the one for a or the one for b ? Field: selected label. Fill in the label of the entry you choose.
a

* * *

# procedure.summary: in vivo
# condition.info: rat, plasma, ip, 5 mg/kg
# Description: Plasma concentration in rat at 5 mg/kg, ip after 1 hr
reported.metric: concentration at 1 h (µM)

Below, 2 compounds whose answers are already recorded.
CSc1sc(-c2cc[nH]n2)c2c1C(=O)NCC2 : 28.3
CSc1sc(-c2cc[nH]n2)c2c1C(=O)CCC2 : 2.33

I = CCCSc1sc(-c2cc[nH]n2)c2c1C(=O)NC[C@@H]2C
II = CC1(C)CC(=O)c2c(SC3CCCC3)sc(-c3cc[nH]n3)c2C1
For this pair, I and II , which shows a numerically higher concentration at 1 h? Field: selected label. Fill in the label of the entry you choose.
I
(I: 24.4 µM, II: 0.97 µM)

* * *

# procedure.summary: Protein binding in rat plasma
# Format: ADME, cell-free
# condition.info: read-out: PPB (converted)
reported.metric: fraction unbound
Just the number, please, no unit after it.

# fraction unbound lookup, item "CC1(C)CC(=O)c2c(SC3CCCC3)sc(-c3cc[nH]n3)c2C1"
0.007

* * *

# procedure.summary: in vivo
# condition.info: rat, po, 10 mg/kg
reported.metric: bioavailability (%)

1 = CC1(C)CC(=O)c2c(SC3CCCC3)sc(-c3cc[nH]n3)c2C1
2 = CSc1sc(-c2cc[nH]n2)c2c1C(=O)CCC2
For this pair, 1 and 2 , which shows a numerically higher bioavailability? Field: selected label. Fill in the label of the entry you choose.
2

* * *

# procedure.summary: in vivo
# condition.info: rat, po, 10 mg/kg
reported.metric: Cmax (µM)

1 = CC1(C)CC(=O)c2c(SC3CCCC3)sc(-c3cc[nH]n3)c2C1
2 = CSc1sc(-c2cc[nH]n2)c2c1C(=O)NCC2
3 = CCCSc1sc(-c2cc[nH]n2)c2c1C(=O)NC[C@@H]2C
4 = CSc1sc(-c2cc[nH]n2)c2c1C(=O)CCC2
Thanks in advance: please rank these 4 entries by Cmax, highest to lowest. Returns: the labels arranged in the requested order.
3, 2, 4, 1
(3: 16 µM, 2: 4.8 µM, 4: 1.6 µM, 1: 0.12 µM)

* * *

# procedure.summary: in vivo
# condition.info: rat, cerebrospinal fluid, ip, 5 mg/kg
# Description: Drug uptake in CSF in rat at 5 mg/kg, ip after 1 hr
reported.metric: concentration at 1 h (nM)

Below, 2 compounds whose answers are already recorded.
CSc1sc(-c2cc[nH]n2)c2c1C(=O)NCC2 : 500
CC1(C)CC(=O)c2c(SC3CCCC3)sc(-c3cc[nH]n3)c2C1 : 10

A = CSc1sc(-c2cc[nH]n2)c2c1C(=O)CCC2
B = CCCSc1sc(-c2cc[nH]n2)c2c1C(=O)NC[C@@H]2C
Which value of concentration at 1 h is smaller, the one for A or the one for B ? Field: selected label. Fill in the label of the entry you choose.
A
(A: 50 nM, B: 150 nM)
